- tested_on: Chymotrypsin
- procedure_details: Inhibition of enzymatic degradation of a chromogenic substrate (Example 202)
- Assay type: biochemical
- experimental_setup: substrate N-succinyl-Ala-Ala-Pro-Phe-p-Nitroanilide
*: point of attachment. Decanoyl = CCCCCCCCCC(=O)*
observation_type: Ki (µM)
Answers are plain numbers, in µM.

In: Report Ki, nothing else, for this substance: N-decanoyl-Ala-Ala-Pro-Phe-OH (Decanoyl-AAPF-OH) [Example 33]
Out: 850

###

- procedure_details: Hydrophobicity: retention time during reverse phase HPLC
- Format: physicochemical
- experimental_setup: Acquity CSH C18; pH 7.2 buffer/CH3CN gradient; 40° C.
*: point of attachment. Lauroyl = CCCCCCCCCCCC(=O)*
Each entry falls into one class according to its RT (retention time during reverse phase HPLC as a measure of hydrophobicity); the ranges are lower range: < 4 min; middle range: ≥ 4 min and < 6 min; upper range: ≥ 6 min

Example results:
INSERT INTO assay_data (substance, cat) VALUES
  ('N-dodecanoyl-Ala-Ala-Pro-Leu-OH (Lauroyl-AAPL-OH; SMILES CCCCCCCCCCCC(=O)N[C@@H](C)C(=O)N[C@@H](C)C(=O)N1CCC[C@H]1C(=O)N[C@@H](CC(C)C)C(=O)O) [Example 11]', 'lower range'),
  ('N-hexadecanoyl-γGlu-OEG-Ala-Ala-Pro-Phe-OH [Example 134]', 'upper range'),
  ('N-dodecanoyl-Ala-Ala-Ile-Tyr-OH (Lauroyl-AAIY-OH; SMILES CCCCCCCCCCCC(=O)N[C@@H](C)C(=O)N[C@@H](C)C(=O)N[C@H](C(=O)N[C@@H](Cc1ccc(O)cc1)C(=O)O)[C@@H](C)CC) [Example 65]', 'lower range'),
  ('N-dodecanoyl-Ala-Ala-Ala-Pro-Phe-OH [Example 18]', 'upper range');

Query substance follows.
In: Into which bin does this substance go? N-tetradecanoyl-γGlu-OEG-Ala-Ala-Pro-Phe-OH [Example 126]
Out: middle range

###

- procedure_details: Hydrophobicity: retention time during reverse phase HPLC
- Assay type: physicochemical
- experimental_setup: Acquity CSH C18; pH 7.2 buffer/CH3CN gradient; 40° C.
- From the text: The retention time (RT) during reverse phase HPLC was taken as a measure of hydrophobicity of an N-terminally modified peptide or oligopeptide of the invention, where the connection is: The longer the RT, the more hydrophobic N-terminally modified peptide or oligopeptide. The following running conditions were applied during HPLC analysis: Buffer B: 70% (v/v) aq. CH3CN
*: point of attachment. Lauroyl = CCCCCCCCCCCC(=O)*
I'd be grateful if you could share measured RT (retention time during reverse phase HPLC as a measure of hydrophobicity) for these entries.
Lab note: write values as number then unit, every time.

Example cases with answers are listed next.
INSERT INTO assay_data (substance, recorded_value) VALUES
  ('N-dodecanoyl-Arg-Ala-Pro-Tyr-OH (Lauroyl-RAPY-OH; SMILES CCCCCCCCCCCC(=O)N[C@@H](CCCNC(=N)N)C(=O)N[C@@H](C)C(=O)N1CCC[C@H]1C(=O)N[C@@H](Cc1ccc(O)cc1)C(=O)O) [Example 92]', '4.84 min'),
  ('N-dodecanoyl-Thr-Ala-Ala-Pro-Tyr-OH [Example 52]', '5.47 min'),
  ('N-dodecanoyl-His-Pro-Tyr-OH [Example 119]', '5.12 min'),
  ('N-dodecanoyl-Ala-His-Pro-Tyr-OH (Lauroyl-AHPY-OH; SMILES CCCCCCCCCCCC(=O)N[C@@H](C)C(=O)N[C@@H](Cc1c[nH]cn1)C(=O)N1CCC[C@H]1C(=O)N[C@@H](Cc1ccc(O)cc1)C(=O)O) [Example 79]', '5.29 min'),
  ('N-dodecanoyl-βAla-βAla-Pro-Phe-OH [Example 10]', '6.04 min'),
  ('N-dodecanoyl-Asp-Pro-Tyr-OH [Example 115]', '3.91 min'),
  ('Ala-Ala-Pro-Phe-OH [Example 14]', '3.08 min'),
  ('N-dodecanoyl-Asp-Ala-Ala-Pro-Tyr-OH [Example 95]', '3.92 min');

// each listed substance needs a value for RT (retention time during reverse phase HPLC as a measure of hydrophobicity)
1. N-dodecanoyl-Ala-Ala-Lys-Tyr-OH (Lauroyl-AAKY-OH; SMILES CCCCCCCCCCCC(=O)N[C@@H](C)C(=O)N[C@@H](C)C(=O)N[C@@H](CCCCN)C(=O)N[C@@H](Cc1ccc(O)cc1)C(=O)O) [Example 67]
2. N-tetradecanoyl-βAla-βAla-βAla-Pro-Phe-OH [Example 138]
3. N-tetradecanoyl-Ala-Ala-Pro-DPhe-OH [Example 5]

Out:
4.7 min
8.16 min
9.74 min

# credit: patent US20150038435A1
